Measured binding signal, listed per entry for reference.
# target_system: OsSMF1 (Oryza sativa, UniProt Q6ZLB0 1-436)
# Sequence: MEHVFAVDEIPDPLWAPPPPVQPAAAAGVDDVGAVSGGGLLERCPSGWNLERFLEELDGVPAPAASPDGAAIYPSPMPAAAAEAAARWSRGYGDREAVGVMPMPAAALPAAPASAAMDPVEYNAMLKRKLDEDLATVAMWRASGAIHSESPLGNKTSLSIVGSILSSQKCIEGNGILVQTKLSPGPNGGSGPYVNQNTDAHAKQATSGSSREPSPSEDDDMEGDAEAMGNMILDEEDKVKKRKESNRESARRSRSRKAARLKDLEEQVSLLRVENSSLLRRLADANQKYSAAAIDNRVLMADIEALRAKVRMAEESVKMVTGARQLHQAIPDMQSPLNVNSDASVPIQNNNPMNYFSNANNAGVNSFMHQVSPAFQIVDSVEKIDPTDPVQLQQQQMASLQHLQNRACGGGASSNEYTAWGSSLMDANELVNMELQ
# experiment_notes: protein-binding microarray (RPBM); PBS, 2% BSA, 51.3 ng/ul salmon testes DNA, 50 uM zinc acetate, 200 nM TF, 25 C, 1 h; high values mean tight binding
# recorded_conditions: protein: recombinant; tags: N-terminal polyhistidine and DsRed monomer fusion (pET32a); chain copies: 2; label: CyDye5-dUTP incorporated in the synthesized complementary strand; 3' TTTTT single-stranded linker to array surface; dsDNA, one strand shown
The full ranking holds about 39,000 sequences; the median of “fluorescence intensity (a.u.)” is about 4,300, and the highest 2% start at about 39,000. The sample holds the highest values, similar sequences and a random draw of the others, so the mix is not that of the screen.

>>> measured_value("TTCTATTCTCCCAAAATTCCTATAGAACGAGATATTCCATCGGAGTCACCTAGTGCAG")
"22200 fluorescence intensity (a.u.)"
>>> measured_value("CAGGCCGGAAACCGGCCGAGCCCACCCATTAGAAAGGACGCGGAGTCACCTAGTGCAG")
"22900 fluorescence intensity (a.u.)"
>>> measured_value("AGCTGGTGATGAGCAGCGTCACCAATTCTTCCTGGACGCCCGGAGTCACCTAGTGCAG")
"4190 fluorescence intensity (a.u.)"
>>> measured_value("CTAGAATGAGTGTTATGGCAGAGTGGTAGATGCTTGAAAACGGAGTCACCTAGTGCAG")
"29600 fluorescence intensity (a.u.)"
>>> measured_value("TTCAAGTCCACATGGTGCTGACGTGAAACTGTCACATACACGGAGTCACCTAGTGCAG")
"7250 fluorescence intensity (a.u.)"

Query :: What does the data say about its binding signal? Entry: `TGGAGCTAGTCAAGTAGACAGATCATACTATTCCCCAATTCGGAGTCACCTAGTGCAG`
Result :: 4150 fluorescence intensity (a.u.)

Query :: // next record `GAAGAATCGGCCCAACGACCAAGAGGGAGTCAAAATAGACCGGAGTCACCTAGTGCAG`
Result :: 22600 fluorescence intensity (a.u.)

Query :: // next record `GATCTCCTTTACACGTGATGTTGACGTGGCGTTTAGGTGGCGGAGTCACCTAGTGCAG`
Result :: 26500 fluorescence intensity (a.u.)

Query :: // next record `ACACATGGAACTTGTGCCATATATCTGTAGGTGTGAAAATCGGAGTCACCTAGTGCAG`
Result :: 41300 fluorescence intensity (a.u.)

Query :: // next record `CCTCCTGTCAGACTGTCGTCAGTGTCACACTGTCACTGTCCGGAGTCACCTAGTGCAG`
Result :: 6520 fluorescence intensity (a.u.)

Query :: // next record `AACTATAGATCCAAGTGAGGAAGCTATATTCCCAAATTTTCGGAGTCACCTAGTGCAG`
Result :: 46000 fluorescence intensity (a.u.)

Query :: // next record `AAATCAGGAAATGAAAAGCTAGGGTTTTAGGTATTGTAATCGGAGTCACCTAGTGCAG`
Result :: 40800 fluorescence intensity (a.u.)

Query :: // next record `GATCAATCATCCTTGTTCACAAGGCTGCCTGACATGGATGCGGAGTCACCTAGTGCAG`
Result :: 3730 fluorescence intensity (a.u.)

Query :: // next record `CACTGTTTGATGCTAAAACATATTACGTGTGCCGTTCATACGGAGTCACCTAGTGCAG`
Result :: 3580 fluorescence intensity (a.u.)

Query :: // next record `CAGGTGTGTCCATTGAATTGAATTGAATTGAAACTATTGACGGAGTCACCTAGTGCAG`
Result :: 60900 fluorescence intensity (a.u.)

Query :: // next record `TTCTACAACTTGGACCATAAAACGTGTAGTTTTGTGAAATCGGAGTCACCTAGTGCAG`
Result :: 3570 fluorescence intensity (a.u.)

Query :: // next record `GTGGGCCATCTGACAGTGCATACAGGAACTTTCCCCTTCTCGGAGTCACCTAGTGCAG`
Result :: 4930 fluorescence intensity (a.u.)

Query :: // next record `TCGATCGACATGGTGAATTGGCGATCGGGTTGGCTCGGCTCGGAGTCACCTAGTGCAG`
Result :: 3170 fluorescence intensity (a.u.)

Query :: // next record `ATAATGCATTTAGTATTGCCACCCTGTACTAATAGATGTTCGGAGTCACCTAGTGCAG`
Result :: 3810 fluorescence intensity (a.u.)

Query :: // next record `AAGGTAGGTTGTAGAACTGATGATCTGTCAATGGTGAAATCGGAGTCACCTAGTGCAG`
Result :: 4940 fluorescence intensity (a.u.)

Query :: // next record `CCCACGTGAGTAAGCTCCTCCCTGCTGGTTTGATTCCCTTCGGAGTCACCTAGTGCAG`
Result :: 4650 fluorescence intensity (a.u.)

Query :: // next record `CTCCATCTCGCAGTCGCAGTGCCAGCTAAGGCCTTGTACACGGAGTCACCTAGTGCAG`
Result :: 3240 fluorescence intensity (a.u.)

Query :: // next record `CCATCTTCATCTCCATATCTTCTCCTCCTCGCGTCGGCAGCGGAGTCACCTAGTGCAG`
Result :: 3270 fluorescence intensity (a.u.)

* * *

# target_system: OsSMF1 (Oryza sativa, UniProt Q6ZLB0 1-436)
# Sequence: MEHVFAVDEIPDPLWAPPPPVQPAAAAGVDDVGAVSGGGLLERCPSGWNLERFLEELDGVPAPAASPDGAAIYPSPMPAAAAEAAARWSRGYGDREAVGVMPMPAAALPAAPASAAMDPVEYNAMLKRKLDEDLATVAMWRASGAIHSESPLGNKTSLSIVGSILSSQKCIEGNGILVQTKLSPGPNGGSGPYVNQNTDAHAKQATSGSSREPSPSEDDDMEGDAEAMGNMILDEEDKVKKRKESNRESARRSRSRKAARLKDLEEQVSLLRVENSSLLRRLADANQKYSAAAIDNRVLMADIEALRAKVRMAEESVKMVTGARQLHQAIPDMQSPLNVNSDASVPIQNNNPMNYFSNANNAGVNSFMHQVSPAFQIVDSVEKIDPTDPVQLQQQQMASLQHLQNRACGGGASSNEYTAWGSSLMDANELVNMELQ
# experiment_notes: protein-binding microarray (RPBM); PBS, 2% BSA, 51.3 ng/ul salmon testes DNA, 50 uM zinc acetate, 200 nM TF, 25 C, 1 h; high values mean tight binding
# recorded_conditions: protein: recombinant; tags: N-terminal polyhistidine and DsRed monomer fusion (pET32a); chain copies: 2; label: CyDye5-dUTP incorporated in the synthesized complementary strand; 3' TTTTT single-stranded linker to array surface; dsDNA, one strand shown
The full ranking holds about 39,000 sequences; the median of “fluorescence intensity (a.u.)” is about 4,300, and the highest 2% start at about 39,000. Many of the other results were omitted from the sample, so the highest values are more common in it than they were.
Measured binding signal, listed per entry for reference.

Answered cases to consult:
>>> measured_value("GATCCAACACGTGTCCCCTACCCACGACACGTGGCAACCCCGGAGTCACCTAGTGCAG")
"36500 fluorescence intensity (a.u.)"
>>> measured_value("CCATGTAAGTGTCACGTCAATGCCACGTGAGACGAAGACCCGGAGTCACCTAGTGCAG")
"12500 fluorescence intensity (a.u.)"
>>> measured_value("GGATCCCATTAACACGTGTCACCGTGGCATGCCACGTCATCGGAGTCACCTAGTGCAG")
"51400 fluorescence intensity (a.u.)"
>>> measured_value("GCTACACTTAACGCTGTCCACAACTCCACATACGCGTTACCGGAGTCACCTAGTGCAG")
"3330 fluorescence intensity (a.u.)"

Query :: What does the data say about its binding signal? Entry: `CTCACCACCACCGTCGTCATCGTCGTCGTCACCCTCCTCCCGGAGTCACCTAGTGCAG`
Result :: 6620 fluorescence intensity (a.u.)
